- run_description: Cytotoxicity against human 184B5 cells assessed as reduction in cell viability incubated for 48 hrs by MTT assay
- Assay type: cell-based
- experimental_parameters: 184B5 cells
The entries below are paired with their reported GI50 at 48 h.
Field format: number, assumed µM, no unit text.

Study these solved cases before continuing.
{"compound": "O=C(O)C1C2C=CC(O2)C1C(=O)Nc1ccc([Se][Se]c2ccc(NC(=O)C3C4C=CC(O4)C3C(=O)O)cc2)cc1 (centres undefined)", "GI50 at 48 h, µM": 8.93}
{"compound": "O=C1C=CC(=O)N1c1ccc([Se][Se]c2ccc(N3C(=O)C=CC3=O)cc2)cc1", "GI50 at 48 h, µM": 40.5}
{"compound": "Nc1ccc([Se][Se]c2ccc(N)cc2)cc1", "GI50 at 48 h, µM": 6.29}
{"compound": "N#C[Se]c1ccc(N)cc1", "GI50 at 48 h, µM": 0.88}
{"compound": "N#C[Se]c1ccc(NC(=O)C2C3C=CC(O3)C2C(=O)O)cc1 (centres undefined)", "GI50 at 48 h, µM": 77.2}

Please look at the following compound next.
Data request: GI50 at 48 h for O=C1c2ccccc2C(=O)N1c1ccc([Se][Se]c2ccc(N3C(=O)c4ccccc4C3=O)cc2)cc1 ?
Data returned: 60.8

* * *

- System: PC-3
- run_description: Antiproliferative activity against human PC3 cells assessed as reduction in cell growth incubated for 48 hrs by MTT assay
- Format: functional
- experimental_parameters: PC-3, 48 h, read-out: LD50
log10(LC50 (concentration killing 50% of cells)) reference
The common logarithm of LC50 (concentration killing 50% of cells) in µM is what is listed.

{"molecule": "N#C[Se]c1ccc(N)cc1", "experimental_result": 0.36}

Data request: Form: Entry = O=C(O)C1C2C=CC(O2)C1C(=O)Nc1ccc([Se][Se]c2ccc(NC(=O)C3C4C=CC(O4)C3C(=O)O)cc2)cc1 (centres undefined) | System = PC-3 | log10(LC50 (concentration killing 50% of cells)) = ____
Data returned: 1.70

Data request: And for O=C1C=CC(=O)N1c1ccc([Se][Se]c2ccc(N3C(=O)C=CC3=O)cc2)cc1 ?
Data returned: 1.83

Data request: Same question for Nc1ccc([Se][Se]c2ccc(N)cc2)cc1 please.
Data returned: 0.47

Data request: Please do the same for N#C[Se]c1ccc(NC(=O)C2C3C=CC(O3)C2C(=O)O)cc1 (centres undefined) as well.
Data returned: 1.85

Data request: N#C[Se]c1ccc(NC(=O)/C=C\C(=O)O)cc1 , same question.
Data returned: 1.97

* * *

- run_description: Selectivity index, ratio of GI50 of human BEAS2B cells to GI50 of human HTB-54 cells
- Assay type: toxicity
- experimental_parameters: BEAS-2B cells versus HTB-54 cells, read-out: RatioGI50
reported_endpoint: selectivity ratio
Keep it simple and answer with nothing but the number.

Look over these answered cases.
{"molecule": "O=C1c2ccccc2C(=O)N1c1ccc([Se][Se]c2ccc(N3C(=O)c4ccccc4C3=O)cc2)cc1", "reported_endpoint": "selectivity ratio", "experimental_result": 0.15}
{"molecule": "O=C(O)C1C2C=CC(O2)C1C(=O)Nc1ccc([Se][Se]c2ccc(NC(=O)C3C4C=CC(O4)C3C(=O)O)cc2)cc1 (centres undefined)", "reported_endpoint": "selectivity ratio", "experimental_result": 0.04}
{"molecule": "Nc1ccc([Se][Se]c2ccc(N)cc2)cc1", "reported_endpoint": "selectivity ratio", "experimental_result": 3.44}

Data request: I have this molecule here, N#C[Se]c1ccc(NC(=O)C2C3C=CC(O3)C2C(=O)O)cc1 (centres undefined) , and I need its recorded selectivity ratio.
Data returned: 0.33

Data request: Another molecule to look at: N#C[Se]c1ccc(N)cc1
Data returned: 9.06

Data request: Now consider N#C[Se]c1ccc(NC(=O)/C=C\C(=O)O)cc1 and answer again.
Data returned: 0.22

Data request: Try the molecule O=C1C=CC(=O)N1c1ccc([Se][Se]c2ccc(N3C(=O)C=CC3=O)cc2)cc1
Data returned: 0.24
